Give measured shrunken log2 fold change for each item. Keep answers brief.
test system: Escherichia coli TOP10; test: shrunken log2 fold change of peptide-encoding DNA abundance (4.5 h post-induction vs induction); higher = less antimicrobial activity (less host growth inhibition); conditions: time post-induction: 4.5 h; library: site-saturation at positions 5, 18, 19, 20
No unit in the answer, only the number.

Entry RRIRTRPPRLPRPRPRPYMWPRP has what shrunken log2 fold change?
-0.233

Input RRIRHRPPRLPRPRPRPPYHPRP
-0.495

Input RRIRRRPPRLPRPRPRPGVGPRP
0.59

Input RRIRARPPRLPRPRPRPIICPRP
0.106

Input RRIRQRPPRLPRPRPRPPIMPRP
-0.344

Input RRIRGRPPRLPRPRPRPHGIPRP
0.00234

Input RRIRTRPPRLPRPRPRPKSLPRP
-0.291

Input RRIRDRPPRLPRPRPRPHEKPRP
-0.0396

Input RRIRMRPPRLPRPRPRPYAAPRP
0.364

Input RRIRVRPPRLPRPRPRPFVPPRP
-0.0478

Input RRIRHRPPRLPRPRPRPPFEPRP
0.161

Input RRIRERPPRLPRPRPRPTMNPRP
-0.19

Input RRIRIRPPRLPRPRPRPGSIPRP
-0.471

Input RRIRTRPPRLPRPRPRPWHTPRP
-0.0217

Input RRIRNRPPRLPRPRPRPTGEPRP
0.394

Input RRIRIRPPRLPRPRPRPIWHPRP
-0.455

Input RRIRERPPRLPRPRPRPRSVPRP
-0.219

Input RRIRARPPRLPRPRPRPRNGPRP
0.566

Input RRIRCRPPRLPRPRPRPLCIPRP
-0.353

Input RRIRQRPPRLPRPRPRPCCIPRP
-0.159

Input RRIRVRPPRLPRPRPRPNHHPRP
-0.373

Input RRIRSRPPRLPRPRPRPYAHPRP
-0.131

Input RRIRYRPPRLPRPRPRPGNNPRP
-0.359

Input RRIRLRPPRLPRPRPRPRDTPRP
-0.0364

Input RRIRFRPPRLPRPRPRPAPSPRP
0.607

Input RRIRDRPPRLPRPRPRPCWMPRP
-0.0868

Input RRIRRRPPRLPRPRPRPGRHPRP
0.212

Input RRIRGRPPRLPRPRPRPPDMPRP
0.879

Input RRIRWRPPRLPRPRPRPAVEPRP
0.497

Input RRIRVRPPRLPRPRPRPLNTPRP
-0.224

Input RRIRHRPPRLPRPRPRPKNEPRP
-0.476

Input RRIRTRPPRLPRPRPRPWLNPRP
-0.0665

Input RRIRTRPPRLPRPRPRPLNAPRP
-0.264

Input RRIRPRPPRLPRPRPRPYAEPRP
-0.377

Input RRIRYRPPRLPRPRPRPSYSPRP
-0.438

Input RRIRMRPPRLPRPRPRPTVSPRP
0.0176

Input RRIRKRPPRLPRPRPRPCKYPRP
0.0409

---

system: Escherichia coli TOP10; assay: shrunken log2 fold change of peptide-encoding DNA abundance (4.5 h post-induction vs induction); higher = less antimicrobial activity (less host growth inhibition); settings: time post-induction: 4.5 h; library: site-saturation at positions 5, 18, 19, 20
Values of shrunken log2 fold change greater than or equal to -0.03 map to YES; values below map to NO.

Entry RRIRFRPPRLPRPRPRPKRNPRP : is its shrunken log2 fold change no less than -0.03?
YES

Input RRIRMRPPRLPRPRPRPCAIPRP
NO

Input RRIRDRPPRLPRPRPRPWRFPRP
NO

Input RRIRCRPPRLPRPRPRPCHHPRP
NO

Input RRIRSRPPRLPRPRPRPVWIPRP
YES

Input RRIRDRPPRLPRPRPRPTPAPRP
YES

Input RRIRQRPPRLPRPRPRPYDMPRP
NO

Input RRIRFRPPRLPRPRPRPQWWPRP
NO

Input RRIRHRPPRLPRPRPRPHCGPRP
NO

Input RRIRPRPPRLPRPRPRPSVPPRP
NO

---

system: Escherichia coli TOP10; test: shrunken log2 fold change of peptide-encoding DNA abundance (4.5 h post-induction vs induction); higher = less antimicrobial activity (less host growth inhibition); settings: time post-induction: 4.5 h; library: site-saturation at positions 5, 18, 19, 20
Values of shrunken log2 fold change greater than or equal to 0.1 map to YES; values below map to NO.

Entry RRIRGRPPRLPRPRPRPTGWPRP : is its shrunken log2 fold change no less than 0.1?
YES

Input RRIRRRPPRLPRPRPRPDQSPRP
NO

Input RRIRFRPPRLPRPRPRPHPIPRP
NO

Input RRIRLRPPRLPRPRPRPTAKPRP
YES

Input RRIRGRPPRLPRPRPRPGRNPRP
YES

Input RRIRMRPPRLPRPRPRPLREPRP
YES

Input RRIRVRPPRLPRPRPRPNINPRP
NO

Input RRIRNRPPRLPRPRPRPPFHPRP
NO

Input RRIRTRPPRLPRPRPRPGVTPRP
YES

Input RRIRERPPRLPRPRPRPKTVPRP
NO

Input RRIRMRPPRLPRPRPRPYWKPRP
NO

Input RRIRRRPPRLPRPRPRPRLFPRP
YES

Input RRIRQRPPRLPRPRPRPFKSPRP
NO

---

Give measured shrunken log2 fold change for each item. Keep answers brief.
system: Escherichia coli TOP10; test: shrunken log2 fold change of peptide-encoding DNA abundance (4.5 h post-induction vs induction); higher = less antimicrobial activity (less host growth inhibition); details: time post-induction: 4.5 h; library: site-saturation at positions 5, 18, 19, 20
No unit in the answer, only the number.

What measured shrunken log2 fold change is associated with RRIRLRPPRLPRPRPRPQDIPRP on Escherichia coli TOP10?
0.133

Input RRIRQRPPRLPRPRPRPRLKPRP
0.161

Input RRIRRRPPRLPRPRPRPHGIPRP
0.0963

Input RRIRMRPPRLPRPRPRPHDWPRP
1.45

Input RRIRVRPPRLPRPRPRPIMWPRP
0.03

Input RRIRQRPPRLPRPRPRPFFEPRP
0.0893

Input RRIRARPPRLPRPRPRPDQGPRP
0.261

Input RRIRMRPPRLPRPRPRPHVFPRP
0.0558

Input RRIRRRPPRLPRPRPRPIYKPRP
-0.394

Input RRIRMRPPRLPRPRPRPVHMPRP
-0.318

Input RRIRDRPPRLPRPRPRPTRAPRP
0.889

Input RRIRLRPPRLPRPRPRPVMTPRP
-0.148

Input RRIRPRPPRLPRPRPRPWSIPRP
-0.0637

Input RRIRERPPRLPRPRPRPQGCPRP
-0.0179

Input RRIRWRPPRLPRPRPRPLGQPRP
0.0349

Input RRIRQRPPRLPRPRPRPQHEPRP
0.119

Input RRIRDRPPRLPRPRPRPYESPRP
0.00683

Input RRIRRRPPRLPRPRPRPVKCPRP
0.23

Input RRIRHRPPRLPRPRPRPKTQPRP
-0.15

---

Give measured shrunken log2 fold change for each item. Keep answers brief.
system: Escherichia coli TOP10; experiment: shrunken log2 fold change of peptide-encoding DNA abundance (4.5 h post-induction vs induction); higher = less antimicrobial activity (less host growth inhibition); settings: time post-induction: 4.5 h; library: site-saturation at positions 5, 18, 19, 20
No unit in the answer, only the number.

What measured shrunken log2 fold change is associated with RRIRKRPPRLPRPRPRPYEHPRP on Escherichia coli TOP10?
0.049

Input RRIRRRPPRLPRPRPRPQRQPRP
0.175

Input RRIRTRPPRLPRPRPRPKWHPRP
-0.0752

Input RRIRHRPPRLPRPRPRPHCDPRP
-0.0744

Input RRIRSRPPRLPRPRPRPGCVPRP
0.247

Input RRIRFRPPRLPRPRPRPLAWPRP
0.32

---

system: Escherichia coli TOP10; assay: shrunken log2 fold change of peptide-encoding DNA abundance (4.5 h post-induction vs induction); higher = less antimicrobial activity (less host growth inhibition); conditions: time post-induction: 4.5 h; library: site-saturation at positions 5, 18, 19, 20;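 further: peptides expressed intracellularly from a pBAD plasmid library in pooled LB shake-flask culture, induced with 0.3% L-arabinose, DNA abundance read by NGS, three biological replicates, DESeq2 with apeglm shrinkage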
TEST_READOUT: shrunken log2 fold change

Entry RRIRNRPPRLPRPRPRPWSYPRP has what shrunken log2 fold change?
-0.0175

Input RRIRGRPPRLPRPRPRPFNVPRP
-0.101

Input RRIRKRPPRLPRPRPRPDCVPRP
0.342

Input RRIRERPPRLPRPRPRPGRCPRP
0.0675

Input RRIRPRPPRLPRPRPRPPNKPRP
0.139

Input RRIRFRPPRLPRPRPRPCPIPRP
-0.488

Input RRIRARPPRLPRPRPRPGYMPRP
-0.21

Input RRIRVRPPRLPRPRPRPGICPRP
-0.0598

Input RRIRPRPPRLPRPRPRPRKWPRP
0.671

Input RRIRKRPPRLPRPRPRPTAYPRP
0.185

Input RRIRTRPPRLPRPRPRPHHQPRP
-0.272

Input RRIRMRPPRLPRPRPRPCALPRP
0.738

Input RRIRDRPPRLPRPRPRPNRMPRP
-0.196

Input RRIRVRPPRLPRPRPRPEAPPRP
0.000205

Input RRIRERPPRLPRPRPRPCNMPRP
-0.101

Input RRIRHRPPRLPRPRPRPMHQPRP
-0.108

Input RRIRARPPRLPRPRPRPGFPPRP
0.213

Input RRIRWRPPRLPRPRPRPHDFPRP
-0.313

Input RRIRGRPPRLPRPRPRPPWKPRP
0.435

Input RRIRNRPPRLPRPRPRPRKYPRP
-0.258
